The reader will find reported pIC50 values listed item by item below.
assay_system: UniProt P18031
Sequence (P18031 whole entry): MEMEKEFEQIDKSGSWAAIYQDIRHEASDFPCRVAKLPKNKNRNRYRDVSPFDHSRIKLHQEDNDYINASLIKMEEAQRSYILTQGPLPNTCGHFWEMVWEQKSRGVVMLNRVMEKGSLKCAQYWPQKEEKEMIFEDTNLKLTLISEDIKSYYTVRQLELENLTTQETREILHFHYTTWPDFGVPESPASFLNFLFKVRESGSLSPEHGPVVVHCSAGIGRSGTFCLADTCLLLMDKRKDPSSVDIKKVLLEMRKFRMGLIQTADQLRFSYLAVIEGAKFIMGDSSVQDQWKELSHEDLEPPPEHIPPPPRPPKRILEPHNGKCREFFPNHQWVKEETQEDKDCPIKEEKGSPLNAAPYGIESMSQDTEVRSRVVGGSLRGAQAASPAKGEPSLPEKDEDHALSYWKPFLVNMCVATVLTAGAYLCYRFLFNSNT
assay_method_text: Inhibition of recombinant human PTP1B (1 to 322 residues) expressed in Escherichia coli using pNPP as substrate preincubated for 10 mins followed by substrate addition measured after 30 mins
Answer as the number alone; pIC50 is minus log10 of concentration in mol/L.

CC(=O)O[C@@H](C/C(C)=C/CCc1ccoc1)C[C@@H](C)CCCc1ccoc1	5.04

The molecule listed as CC1=C(O)/C(=C/[C@@H](C)CCC/C(C)=C/CC/C(C)=C/CCc2ccoc2)OC1=O shows pIC50 equal to 5.82

So, C/C(=C\CCc1ccoc1)C[C@H](O)C[C@@H](C)CCCc1ccoc1 ? Its pIC50 was 5.00

// CC1=C(O)/C(=C/[C@@H](C)CCC/C(C)=C/CCC(C)(O)CCCc2ccoc2)OC1=O (some centres undefined) : pIC50 value = 5.15
